Assay: NCI Yeast Anticancer Drug Screen. Data for the sgs1 mgt1 strain (AID 161);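 also: 0% = growth of cultures given vehicle only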
Conditions: S. cerevisiae sgs1 mgt1 strain, at 50.0 µM
The panel holds about 79,000 compounds, 15% with a hit somewhere; the sample as a whole holds those more often. The source made the active and inactive calls. Rule as the data show it: active = growth inhibition above about 70%; inactive = the rest.
Can you answer with just one of these options? 1.0 = active, 0.0 = inactive

// known answers, use as guide
• Cn1cnc2c(Oc3ccc(Cl)cc3)ncnc21 = 0.0
• Cc1ccc(N=Nc2cc(C)c(N)cc2N)c(S(=O)(=O)O)c1 = 0.0
• CCCCCC(=O)Oc1c(C(C)CC)cc([N+](=O)[O-])cc1[N+](=O)[O-] (configuration not stated) = 1.0
• CCC(C)(CC)OC(=O)c1ccc([N+](=O)[O-])cc1 = 0.0

input: For CC(=O)OCc1ccnc2ccc(OC(C)=O)cc12 , what call appears in the results of this test?
output: 0.0

input: Recorded call for C1CCCCC2(CCCCCCCCC3(CCC1)OCCO3)OCCO2 ?
output: 0.0

input: Check the results log: what was the call for COc1ccc(NC(=O)C(F)(F)F)cc1 ?
output: 0.0

====

Assay: NCI Yeast Anticancer Drug Screen. Data for the mlh1 rad18 strain (AID 175)
Conditions: S. cerevisiae mlh1 rad18 strain growth inhibition; at 50.0 µM
Procedure: Growth inhibition of yeast strains with defined genetic alterations is measured as a screen for potential anti-cancer activity. Selected strains with alterations in DNA damage repair or cell cycle control were exposed to compounds and growth inhibition was measured relative to vehicle treated controls. The strain used in this assay is mlh1 rad18
The panel holds about 79,000 compounds, 15% with a hit somewhere; the sample as a whole holds those more often. Active and inactive are the calls of the source. Cut-off read from the data, not from the text of the source: active = growth inhibition above about 70%; inactive = the rest.
Outcome field: choose from 1.0 for active, 0.0 for inactive

* OC(C/C(=N\Nc1ccccc1)c1ccc(F)cc1)(C(F)(F)F)C(F)(F)F | 1.0

input: What call does the record list for C(=N\N1CCN(/N=C/c2ccc(OCc3ccccc3)cc2)CC1)/c1ccc(OCc2ccccc2)cc1 ?
output: 0.0

====

Assay: NCI Yeast Anticancer Drug Screen. Data for the sgs1 mgt1 strain (AID 161);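 also: 0% = growth of cultures given vehicle only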
Details: S. cerevisiae sgs1 mgt1 strain, at 50.0 µM, hits give high values
Compounds without any hit were thinned out: in the full panel of roughly 79,000, 15% have a hit.
MEASUREMENT_NAME: growth inhibition (%)
The reply should be a number in %, with the unit left off.

In the examples that follow, each entry is paired with its recorded growth inhibition.
* COc1c(Cl)cc(Cl)cc1C(c1cc(Cl)cc(Cl)c1OC)C(Cl)(Cl)Cl | 4.6
* CCC(CC)C1CC[N-]CC1.CCC(CC)C1CC[N-]CC1.CCC(CC)C1CC[N-]CC1.CCC(CC)C1CC[N-]CC1.N#C[S-].N#C[S-].[Co] | 3.1

input: Recorded growth inhibition of CCNc1ccc2c(c1)C(=O)c1ccccc1-2 , please.
output: 17.4

====

Assay: NCI Yeast Anticancer Drug Screen. Data for the bub3 strain (AID 167)
Conditions: S. cerevisiae bub3 mutant strain, at 50.0 µM, hits give high values
This is part of a sample that, as a whole, favours compounds with a hit. Of some 79,000 tested, about 15% had one in any assay.
MEASUREMENT_NAME: growth inhibition (%)
Express it in %; write the number only.

Look over these answered cases.
• O=C1c2ccccc2S[C@@H](O)[C@@H]2CCCN12 = -41.8
• O=Cc1cccc2[nH]ccc12 = 7.85
• Cc1cc(N(C)c2ccccc2)nc(N(C)c2ccccc2)n1 = -23.3
• COc1ccc(CC(N)C(N)=O)cc1 (stereo unspecified) = -0.3
• O=C1C2=C(c3ccccc31)C(c1ccc(F)cc1)N1C(=O)CCSC1=N2 (stereo unspecified) = 48.6

Now look at this entry.
input: Consider the molecule O=C1C[CH]([Ge](=[O])[O][Ge](=[O])[CH]2CC(=O)NC(=O)N2)NC(=O)N1 (stereo unspecified) and give its measured growth inhibition.
output: -5.3
